- assay-procedure: in vivo
- assay-context: male, Wistar, rat, plasma, po, 15 mg/kg, AUC0–24, diltiazem 15 mg/kg p.o, multiple dose GFJ
measured-quantity: AUC(0-t)
Write the quantity with the unit trailing the number.

Given COc1ccc([C@@H]2Sc3ccccc3N(CCN(C)C)C(=O)[C@@H]2OC(C)=O)cc1 , state its recorded AUC(0-t).
24.8 ng·h/mL

* * *

- assay-procedure: in vivo
- assay-context: male, Wistar, rat, plasma, po, 15 mg/kg, Cmax, diltiazem 15 mg/kg p.o with water (control), n = 6
measured-quantity: Cmax (ng/mL)
Your answer is read as ng/mL, so omit the unit and give the number.

Quick one: Cmax of COc1ccc([C@@H]2Sc3ccccc3N(CCN(C)C)C(=O)[C@@H]2OC(C)=O)cc1 ?
121

* * *

- assay-procedure: in vivo
- assay-context: male, Wistar, rat, plasma, po, 15 mg/kg, AUC0–∞, diltiazem 15 mg/kg p.o, multiple dose GFJ
measured-quantity: AUC(0-inf) (ng·h/mL)
The response must be a number in ng·h/mL with no trailing unit.

Any idea what its AUC(0-inf) is? The molecule is COc1ccc([C@@H]2Sc3ccccc3N(CCN(C)C)C(=O)[C@@H]2OC(C)=O)cc1
33.7

* * *

- assay-procedure: in vivo
- assay-context: male, Wistar, rat, plasma, po, 15 mg/kg, AUC0–∞, diltiazem 15 mg/kg p.o with water (control)
measured-quantity: AUC(0-inf) (ng·h/mL)
The response must be a number in ng·h/mL with no trailing unit.

// query AUC(0-inf) value for entry COc1ccc([C@@H]2Sc3ccccc3N(CCN(C)C)C(=O)[C@@H]2OC(C)=O)cc1
62.8
